The reported measurements were obtained from ChEMBL document CHEMBL1157194.

TGT: D(2) dopamine receptor (Homo sapiens, UniProt P14416)
Sequence (P14416 whole entry): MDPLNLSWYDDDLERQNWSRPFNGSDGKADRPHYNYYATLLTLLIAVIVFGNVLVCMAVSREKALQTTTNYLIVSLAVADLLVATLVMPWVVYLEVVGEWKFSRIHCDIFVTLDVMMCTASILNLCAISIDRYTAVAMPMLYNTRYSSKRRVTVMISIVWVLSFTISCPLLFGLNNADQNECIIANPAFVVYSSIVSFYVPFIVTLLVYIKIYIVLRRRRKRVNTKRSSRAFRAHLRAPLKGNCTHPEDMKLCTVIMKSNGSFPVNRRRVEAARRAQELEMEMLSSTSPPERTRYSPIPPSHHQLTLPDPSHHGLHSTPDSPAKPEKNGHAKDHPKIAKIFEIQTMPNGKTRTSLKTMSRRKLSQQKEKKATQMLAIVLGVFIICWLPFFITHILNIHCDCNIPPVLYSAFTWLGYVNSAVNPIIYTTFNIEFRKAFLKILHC
TEST_PROTOCOL: Binding affinity to dopamine D2 receptor
ATTRIBUTE_MEASURED: Ki

[in] For the compound CC(C)Oc1ccccc1N1CCN(Cc2cccc(C(=O)N3CCCCC3)c2)CC1 , give its reported Ki.
[out] < 4 nM

====

TEST_PROTOCOL: Binding affinity to adrenergic alpha1 receptor
CONDITION_CONTEXT: read-out: Ki
ATTRIBUTE_MEASURED: Ki (nM)
Numbers only, in nM.

- COMPOUND: "COc1cc2nc(N3CCN(C(=O)c4ccco4)CC3)nc(N)c2cc1OC [PRAZOSIN]"
  UNIT_INFO: "nM"
  Ki: 0.32
- COMPOUND: "O=C(CCCN1CCC(O)(c2ccc(Cl)cc2)CC1)c1ccc(F)cc1 [HALOPERIDOL]"
  UNIT_INFO: "nM"
  Ki: 1

Would you mind listing Ki for each of the following compounds?
1. NC(=O)CN(CCc1ccccc1)C(=O)CN(C(=O)CNCCc1ccc(O)cc1)c1ccc(Oc2ccccc2)cc1
2. Nc1nc(-c2ccc(F)cc2)c([C@@H]2CCN(CCCC(=O)c3ccc(F)cc3)C2)s1
3. NC(=O)CN(CCc1ccccc1)C(=O)CN(C(=O)CNCCc1ccc(O)cc1)c1ccc(-c2ccccc2)cc1
4. NC(=O)CN(CCc1ccc(-c2ccccc2)cc1)C(=O)CN(C(=O)CNCCc1ccc(O)cc1)c1ccc(-c2ccccc2)cc1
5. CN1CCN(C2=Nc3cc(Cl)ccc3Nc3ccccc32)CC1 [CLOZAPINE]

[out]
140
1.4
0.32
310
1.4
